Target: T1, CXCL8/IL-8 (UniProt P10145 28-99, limits assumed)
T1 construct: also called 125I-CXCL8/IL-8; 125I-IL-8
T1 sequence (looked up): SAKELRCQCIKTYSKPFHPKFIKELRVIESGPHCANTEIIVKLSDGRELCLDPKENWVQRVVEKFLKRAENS
Assay: SPR (Biacore 3000), Evasin-3-6His immobilized on CM4 chip, Kd=kd/ka
parameter_measured: Kd (pM)

{"binder": "recombinant Evasin-3-6His purified from HEK293 cells (other, glycosylation on the S and T residues of the N-terminal sequence LVSTIESRTS (80% of the mature protein); heterogeneous post-translational modification, smear of 20-30 Kd, also called Evasin-3-HIS; mature Evasin-3-HIS) LVSTIESRTSGDGADNFDVVSCNKNCTSGQNECPEGCFCGLLGQNKKGHCYKIIGNLSGEPPVVRRHHHHHH", "meas_value": 220}
